test system: Plasmodium berghei; test: Anti-plasmodial activity against pre-erythrocytic stage Plasmodium berghei infected in human Huh-7 cells at 10 to 500 nM by bioluminescence assay; format: functional, organism-based; conditions: dose 10-500 nM
Active and inactive are the calls of the source. The rule behind the calls is not given here.
Response enum: True (active), False (inactive)

Asked: Call for entry CCC(C)[C@H]1O[C@]2(CC[C@@H]1C)C[C@@H]1C[C@@H](C/C=C(\C)[C@@H](O[C@H]3C[C@H](OC)[C@@H](O[C@H]4C[C@H](OO)[C@@H](O)[C@H](C)O4)[C@H](C)O3)[C@@H](C)/C=C/C=C3\CO[C@@H]4[C@H](O)C(CO)=C[C@@H](C(=O)O1)[C@]34O)O2 (stereo partly drawn) :
Given back: False

Asked: Call for entry CCC(C)[C@H]1O[C@]2(CC[C@@H]1C)C[C@@H]1C[C@@H](C/C=C(\C)[C@@H](O[C@H]3C[C@H](OC)[C@@H](O)[C@H](C)O3)[C@@H](C)/C=C/C=C3\CO[C@@H]4[C@H](O[Si](C)(C)C(C)(C)C)C(C)=C[C@@H](C(=O)O1)[C@]34O)O2 (stereo partly drawn) :
Given back: True

Now look at this one.
Asked: Call for entry CCC(C)[C@H]1O[C@]2(CC[C@@H]1C)C[C@@H]1C[C@@H](C/C=C(\C)[C@@H](O[C@H]3C[C@H](OC)[C@@H](O[C@H]4C[C@H](OO)[C@@H](O)[C@H](C)O4)[C@H](C)O3)[C@@H](C)/C=C/C=C3\CO[C@@H]4[C@H](O[Si](C)(C)C(C)(C)C)C(C)=C[C@@H](C(=O)O1)[C@]34O)O2 (stereo partly drawn) :
Given back: True

---

tested on: Plasmodium berghei; assay: Anti-plasmodial activity against pre-erythrocytic stage Plasmodium berghei infected in human Huh-7 cells at 10 to 500 nM by bioluminescence assay; type: functional, organism-based; conditions: dose 10-500 nM
The source made the active and inactive calls. The rule behind the calls is not given here.
observable: Activity

Asked: # Activity lookup, item CCC(C)[C@H]1O[C@]2(CC[C@@H]1C)C[C@@H]1C[C@@H](C/C=C(\C)[C@@H](O[C@H]3C[C@H](OC)[C@@H](OC(=O)CCl)[C@H](C)O3)[C@@H](C)/C=C/C=C3\CO[C@@H]4[C@H](O)C(C)=C[C@@H](C(=O)O1)[C@]34O)O2 (some centres not stated)
Given back: inactive

Asked: # Activity lookup, item CCC(C)[C@H]1O[C@]2(CC[C@@H]1C)C[C@@H]1C[C@@H](C/C=C(\C)[C@@H](O[C@H]3C[C@H](OC)[C@@H](O[C@H]4C[C@H](OO)[C@@H](OC(=O)CNC5CCNCC5)[C@H](C)O4)[C@H](C)O3)[C@@H](C)/C=C/C=C3\CO[C@@H]4[C@H](O)C(C)=C[C@@H](C(=O)O1)[C@]34O)O2 (some centres not stated)
Given back: inactive

src = ChEMBL document CHEMBL6127120
